Recorded EC50, saporin (Fab-ZAP) cell killing, 293.PTK7 Cells by entry
TEST_SYSTEM: T1, human PTK7, full length, expressed on transduced cells (human, UniProt Q13308 31-1070)
T1 sequence: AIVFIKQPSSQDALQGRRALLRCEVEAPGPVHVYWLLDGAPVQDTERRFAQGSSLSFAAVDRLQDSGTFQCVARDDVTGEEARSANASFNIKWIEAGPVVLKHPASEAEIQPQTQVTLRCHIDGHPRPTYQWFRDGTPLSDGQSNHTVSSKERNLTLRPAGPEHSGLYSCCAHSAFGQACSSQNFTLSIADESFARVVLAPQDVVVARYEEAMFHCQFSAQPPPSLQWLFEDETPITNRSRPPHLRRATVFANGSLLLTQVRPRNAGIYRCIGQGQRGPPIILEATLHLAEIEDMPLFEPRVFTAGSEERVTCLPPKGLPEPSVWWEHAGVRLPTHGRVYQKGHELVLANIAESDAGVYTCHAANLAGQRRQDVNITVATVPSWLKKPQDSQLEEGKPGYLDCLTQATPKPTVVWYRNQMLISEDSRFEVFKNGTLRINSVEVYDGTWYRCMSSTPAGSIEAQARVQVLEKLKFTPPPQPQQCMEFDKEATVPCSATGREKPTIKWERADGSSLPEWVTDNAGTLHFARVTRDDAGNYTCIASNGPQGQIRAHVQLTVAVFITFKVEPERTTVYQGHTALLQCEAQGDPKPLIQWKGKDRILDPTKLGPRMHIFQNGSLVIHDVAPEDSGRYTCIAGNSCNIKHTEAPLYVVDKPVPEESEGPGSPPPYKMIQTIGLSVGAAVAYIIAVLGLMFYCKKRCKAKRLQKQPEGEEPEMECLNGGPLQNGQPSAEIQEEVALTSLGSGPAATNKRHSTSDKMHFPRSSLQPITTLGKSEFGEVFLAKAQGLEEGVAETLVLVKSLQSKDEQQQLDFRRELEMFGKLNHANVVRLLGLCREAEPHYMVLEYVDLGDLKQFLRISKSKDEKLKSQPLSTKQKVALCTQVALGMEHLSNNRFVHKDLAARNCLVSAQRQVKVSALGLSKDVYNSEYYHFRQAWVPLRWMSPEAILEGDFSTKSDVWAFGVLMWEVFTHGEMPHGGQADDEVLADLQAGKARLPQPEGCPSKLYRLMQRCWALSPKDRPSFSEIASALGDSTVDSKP
TEST_DESCRIPTION: cell-based or functional assay

Complete the entry with EC50, saporin (Fab-ZAP) cell killing, 293.PTK7 Cells for SC6.58 (antibody, V domains shown, Murine monoclonal antibody, kappa light chain) VH: EVKLLESGGGLVQPGGSLKLSCAASGFDFSRYWMSWVRQAPGKGLEWIGDLNPDSSAINYTPSLKDKFIISRDNAKNTLYLQMSKVRSEDTALYYCTLITTLVPYTMDFWGQGTSVTVSS VL: ETTVTQSPASLSMAIGEKVTIRCITNTDIDDDMNWYQQKPGEPPKLLISEGNGLRPGVPSRFSSSGYGTDFVFTIENMLSEDVADYYCLQSDNLPLTFGSGTKLEIK
10.4 pM

Complete the entry with EC50, saporin (Fab-ZAP) cell killing, 293.PTK7 Cells for SC6.23 (antibody, V domains shown, Murine monoclonal antibody, kappa light chain; also called murine SC6.23) VH: QVTLKESGPGILKPSQTLSLTCSFSGFSLSTSNMGVGWIRQPSGKGLEWLAHIWWDDDKYYNPSLKSQLTISKDTSRNQVFLKITSVDTEDTATYYCVRSNYGYAWFAYWGQGTLVTVSA VL: DIKMTQSPSSMYASLGERVTITCKASQDIYPYLNWFQQKPGKSPKTLIYRTNRLLDGVPSRFSGSGSGQDYSLTISSLDYEDMGIYYCLQYDEFPLTFGAGTKLELK
1.1 pM

Complete the entry with EC50, saporin (Fab-ZAP) cell killing, 293.PTK7 Cells for SC6.41 (antibody, V domains shown, Murine monoclonal antibody, kappa light chain) VH: EVQLQQSGAESVRSGASVKLSCTASGLNIKDYYMHWVNLRPEQGLEWIGWIDPENGDTEYAPEFQGKATMTADTSSNTAYLQLSSLTSEDTAVYYCNACNYGSAYGYWGQGTTLTVSS VL: DIVLTQATPSVPVTPGESVSISCRSSKSLLHTKGDTYLYWFLQRPGQSPQLLIYRMSNLASGVPDRFSGSGSGTVFTLRISRVEAEDVGVYYCMQHLEYPFTFGSGTKLEIKR
2.3 pM
